Taken from paper PMC5540273.

# Test system: ARK5
# Construct: gene NUAK1
# Experimental setup: concentration: 1 μM, replicates: in singlicate; n = 1;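 also: KINOMEscan kinase panel screen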
Here the recorded %Inh is given for each entry.
Give the number first and the unit second.

Smiles string: Oc1ccc2ncnc(Nc3ccc(OCc4ccccc4)cc3)c2c1
Result: 15%

Smiles string: N#Cc1ccc(Oc2ccc(Nc3ncnc4cc[nH]c34)cc2Cl)cc1
Result: 10%

Smiles string: COc1ccc(-c2oc3ncnc(N)c3c2-c2ccc(OC)cc2)cc1
Result: 13%

Look up %Inh: `Cn1ccc2ncnc(Oc3ccc(NC(=O)Nc4cccnc4)c(Cl)c3)c21`
3%

Same read-out for `COC(=O)c1cccc(NC(=O)NCCNc2ccnc(Nc3ccc(F)cc3)n2)c1` ?
0%

Now try `O=C(CCO)NCCn1ccc2ncnc(Nc3ccc(Oc4cccc(C(F)(F)F)c4)c(Cl)c3)c21` .
0%

Then what about the compound `O=C(Nc1ccccc1)Nc1ccc(Oc2ccc3nccn3n2)cc1` ?
0%

Same read-out for `Cl.Cl.c1ccc(-c2cc3ccncc3cc2OC2CCNCC2)cc1` ?
13%

Param item: `Cn1cc(-c2ccc3c(c2)CCN3C(=O)Cc2cccc(C(F)(F)F)c2)c2c(N)ncnc21`
13%

Next up: `COc1cc2c(Nc3cccc(NC(=O)c4ccccc4)c3)ncnc2cc1OCCCN1CCOCC1`
0%

Same question for `COC(=O)c1c(-c2ccccc2)c2cc(Cl)ccc2c(=O)n1Cc1ccc(S(C)(=O)=O)cc1` please.
19%

* * *

# Test system: EPHB3
# Experimental setup: concentration: 1 μM, replicates: in singlicate; n = 1
Readout type: %Inh (%)
Respond numerically; units are % and should not be typed.

Example compounds with recorded %Inh:
Smiles string: CSc1ccc(NC2=C(c3ccccc3Cl)C(=O)NC2=O)cc1
Result: 0

Smiles string: CSc1nn2c(=O)cc(N3CCOCC3)nc2n1Cc1cccc(Cl)c1Cl
Result: 6

Smiles string: Clc1ccc(-c2cc(-c3c[nH]nc3-c3ccccn3)ccn2)cc1
Result: 15

Smiles string: Nc1n[nH]c2nnc(-c3ccccc3)cc12
Result: 10

Smiles string: N#Cc1ccc(Oc2ccc(Nc3ncnc4cc[nH]c34)cc2Cl)cc1
Result: 21

Query for EPHB3: what %Inh does the record show for `Cn1ccc2ncnc(Oc3ccc(NC(=O)Nc4cccnc4)c(Cl)c3)c21` ?
12

* * *

Each entry below carries its recorded %Inh.
# System: PRKX
# Experimental setup: concentration: 1 μM, replicates: in singlicate; n = 1
Please respond with the number in % and leave the unit unwritten.

Smiles string: Fc1cccc(COc2ccc(Nc3ncnc4nn5ccccc5c34)cc2Cl)c1
Units of measure: %
%Inh: 2
--
Smiles string: N#Cc1ccc(Oc2ccc(Nc3ncnc4cc[nH]c34)cc2Cl)cc1
Units of measure: %
%Inh: 7
--
Smiles string: O=C(c1ccc(-c2cc(-c3c[nH]nc3-c3ccccn3)ccn2)cc1)N1CCCC1
Units of measure: %
%Inh: 0
--
Smiles string: Cc1cc(N2CCC(NS(=O)(=O)c3ccc(F)cc3)CC2)nc(Nc2cccc(C#N)c2)n1.O=C(O)C(F)(F)F
Units of measure: %
%Inh: 0

Next molecule, please.
Give its %Inh value. Item: `COc1ccc(-c2nc3n(c2-c2ccncc2)CCC3)cc1`
0

* * *

# Test system: MYLK
# Experimental setup: concentration: 1 μM, replicates: in singlicate; n = 1
Readout type: %Inh (%)
Kindly answer with a numeric value in %, unit omitted.

Check out these entries, answers already filled in.
Compound: CNc1nccc(-c2c(-c3ccc(F)cc3)ncn2C2CCN(C)CC2)n1 [SB-222903]
Units of measure: %
%Inh: 0
--
Compound: Cc1cc(N2CCC(NS(=O)(=O)c3ccc(F)cc3)CC2)nc(Nc2cccc(C#N)c2)n1.O=C(O)C(F)(F)F [GSK1653537]
Units of measure: %
%Inh: 0
--
Compound: CCc1nc(-c2cccc(C)c2)c(-c2ccnc(NC(=O)c3ccccc3)c2)s1
Units of measure: %
%Inh: 18

Could you now consider this next compound?
I'd like to know its %Inh. The compound in question is CC(C)(C)OC(=O)NC1CCCN(c2cc(-c3ccc4c(N)n[nH]c4c3)nc(N)n2)C1 (stereo not shown) [GSK2286096]
0
